# System: Puccinia triticina
# METHOD_NOTES: Wheat brown rust (PUCCRT) disease control on wheat seedlings
# Assay type: in vivo
# REPORTED_CONDITIONS: low volume application, 125.1 g/H, 3 Day Curative
PROPERTY_MEASURED: PUCCRT 3DC, LV activity at 125.1 g/H (% Control rating)

Study these solved cases before continuing.
• COc1ccnc(C(=O)N[C@@H](C)C(=O)O[C@@H](C)[C@H](Oc2ccccc2)c2ccccc2)c1OC(C)=O = A (> 80)
• CCC(CC)[C@@H](Oc1cccc(F)c1)[C@H](C)OC(=O)[C@H](C)NC(=O)c1nccc(OC)c1OCOC(C)=O = A (> 80)
• CCC(CC)[C@@H](Oc1ccc(Cl)cc1Cl)[C@H](C)OC(=O)[C@H](C)NC(=O)c1nccc(OC)c1OCOC(C)=O = B (≤ 80)
• COc1ccnc(C(=O)NC(C)C(=O)OC(C)COC(=O)C(C)C)c1OC(C)=O (stereo not shown) = D
• COc1ccnc(C(=O)N[C@@H](C)C(=O)O[C@@H](C)[C@H](Oc2ccc(Cl)cc2)c2ccccc2)c1OCOC(C)=O = A (> 80)
• CC[C@H](CC1CCCC1)[C@@H](OCC1CC1)[C@H](C)OC(=O)[C@H](C)NC(=O)c1nccc(OC)c1OC(C)=O = B (≤ 80)

Incoming: Query (compound): CC[C@@H](CCC(C)C)[C@H](Oc1ccccc1)[C@H](C)OC(=O)[C@H](C)NC(=O)c1nccc(OC)c1OCOC(C)=O ; field requested: PUCCRT 3DC, LV activity at 125.1 g/H (% Control rating)
Outgoing: A (> 80)

###

# System: Zymoseptoria tritici
# METHOD_NOTES: Leaf blotch of wheat (SEPTTR) disease control on wheat seedlings
# Assay type: in vivo
# REPORTED_CONDITIONS: HV application at 100 ppm; 3 Day Curative; wheat leaf blotch
PROPERTY_MEASURED: SEPTTR 3DC disease control rating, HV activity

Look over these answered cases.
• CCCOC(CC)C(Oc1ccccc1)C(C)OC(=O)C(C)(C)NC(=O)c1nccc(OC)c1O (centres unmarked) = B (≤ 80)
• CCC(CC)C(Oc1ccc(Cl)cc1Cl)C(C)OC(=O)C(C)NC(=O)c1nccc(OC)c1O (centres unmarked) = D
• CCC(CC)[C@@H](OCC1CC1)[C@H](C)OC(=O)[C@H](C)NC(=O)c1nccc(OC)c1O = B (≤ 80)
• COc1ccnc(C(=O)N[C@@H](C)C(=O)O[C@@H](C)COCC(C)C)c1O = D
• COc1ccnc(C(=O)N[C@@H](C)C(=O)O[C@@H](C)[C@@H](Cc2ccccc2)OC)c1O = B (≤ 80)
• COc1ccnc(C(=O)NC(C)C(=O)OC(C)C(Oc2ccc(-c3ccccc3)cc2)C(C)C)c1O (centres unmarked) = B (≤ 80)

# ---- query molecule ----
Incoming: Fill in the blank: the reported SEPTTR 3DC disease control rating, HV activity of CC[C@H](OC)[C@@H](Oc1ccc(Cl)cc1Cl)[C@H](C)OC(=O)[C@H](C)NC(=O)c1nccc(OC)c1O is ____.
Outgoing: B (≤ 80)

###

# Test system: Puccinia triticina
# METHOD_NOTES: Wheat brown rust (PUCCRT) disease control on wheat seedlings
# Assay type: in vivo
# REPORTED_CONDITIONS: low volume application, 125.1 g/H, 1 Day Protectant
PROPERTY_MEASURED: PUCCRT 1DP, LV activity at 125.1 g/H (% Control rating)

• CC[C@H](NC(=O)c1nccc(OC)c1OC(C)=O)C(=O)O[C@@H](C)[C@@H](COc1ccccc1)Oc1ccccc1 [Cmpd 489] = A (> 80)
• CCC(CC)[C@@H](OCC1CC1)[C@H](C)OC(=O)[C@H](C)NC(=O)c1nccc(OC)c1OC(C)=O [Cmpd 555] = A (> 80)
• CCC(CC)[C@@H](Oc1ccccc1)[C@H](C)OC(=O)[C@H](C)NC(=O)c1nccc(OC)c1OC(C)=O [Cmpd 479] = A (> 80)
• COc1ccnc(C(=O)N[C@@H](C)C(=O)O[C@@H](C)[C@H](Oc2ccc(C(F)(F)F)cc2)C(C)C)c1OC(C)=O [Cmpd 629] = A (> 80)
• CCCOC[C@@H](Oc1ccccc1)[C@H](C)OC(=O)[C@H](CC)NC(=O)c1nccc(OC)c1OC(C)=O [Cmpd 484] = B (≤ 80)
• COc1ccnc(C(=O)NC(C)C(=O)OC(C)COCc2ccccc2)c1OCOC(C)=O (stereo not shown) [Cmpd 520] = B (≤ 80)

Kindly review the next molecule as well.
Incoming: Could you share which PUCCRT 1DP, LV activity at 125.1 g/H (% Control rating) value was measured for CCC(CC)[C@@H](Oc1cc(F)ccc1F)[C@H](C)OC(=O)[C@H](C)NC(=O)c1nccc(OC)c1OCOC(C)=O [Cmpd 591] ?
Outgoing: A (> 80)
